biological target: Cytochrome P450 2D6 (Homo sapiens, UniProt P10635)
Sequence (P10635 whole entry): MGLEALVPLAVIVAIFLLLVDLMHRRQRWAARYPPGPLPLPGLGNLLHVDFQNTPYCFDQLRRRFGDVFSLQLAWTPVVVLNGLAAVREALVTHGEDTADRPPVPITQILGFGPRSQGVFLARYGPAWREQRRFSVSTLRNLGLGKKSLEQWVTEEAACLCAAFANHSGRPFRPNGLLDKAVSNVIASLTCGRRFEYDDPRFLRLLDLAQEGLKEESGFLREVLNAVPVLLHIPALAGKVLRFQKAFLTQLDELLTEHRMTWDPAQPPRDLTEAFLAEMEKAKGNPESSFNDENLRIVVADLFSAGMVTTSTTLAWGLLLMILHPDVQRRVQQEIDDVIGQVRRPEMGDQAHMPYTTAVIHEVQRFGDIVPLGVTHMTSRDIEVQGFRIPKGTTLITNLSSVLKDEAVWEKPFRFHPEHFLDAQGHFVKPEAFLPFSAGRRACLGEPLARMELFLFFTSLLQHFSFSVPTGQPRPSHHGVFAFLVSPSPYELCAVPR
result.type: IC50

Req: Would you mind telling me what IC50 value was observed for "Cn1c(-c2ccccn2)c(C2CCCC2)c2ccc(C(=O)NC3(C(=O)Nc4ccc(/C=C/C(=O)O)cc4)CCC3)cc21" ?
Resp: > 30 µM

###

assay: Plasma concentration in rat at 4 mg/kg, po cassette dosing after 2 hrs; format: ADME, organism-based; set-up: dose 4 mg/kg, route oral
result.type: concentration at 2 h (nM)
Give bare numbers, in nM.

Use the examples below as a reference point.
entry_smiles=CC(C)Oc1cc(NC(=O)C2(NC(=O)c3ccc4c(C5CCCC5)c(-c5ccccn5)n(C)c4c3)CCC2)ccc1/C=C/C(=O)O endpoint_value=800
entry_smiles=CCOc1cc(NC(=O)C(C)(C)NC(=O)c2ccc3c(C4CCCC4)c(-c4ncc(Cl)cn4)n(C)c3c2)ccc1/C=C/C(=O)O endpoint_value=100
entry_smiles=CCOc1cc(NC(=O)C2(NC(=O)c3ccc4c(C5CCCC5)c(-c5ccc(Cl)cn5)n(C)c4c3)CCC2)ccc1/C=C/C(=O)O endpoint_value=300

Req: What value of concentration at 2 h has been reported for the following compound? "CCOc1cc(NC(=O)C2(NC(=O)c3ccc4c(C5CCCC5)c(-c5ccccn5)n(C)c4c3)CCC2)ccc1/C=C/C(=O)O"
Resp: 400

###

experiment: Plasma concentration in rat at 4 mg/kg, po cassette dosing after 1 hr; type: ADME, organism-based; parameters: dose 4 mg/kg, route oral
result.type: concentration at 1 h (nM)
Answers are plain numbers, in nM.

Here are 3 molecules together with their reported answers.
entry_smiles=COc1cc(NC(=O)C2(NC(=O)c3ccc4c(C5CCCC5)c(-c5ccccn5)n(C)c4c3)CCC2)cc(OC)c1/C=C/C(=O)O result_type="concentration at 1 h" endpoint_value=400
entry_smiles=COCCOc1cc(NC(=O)C2(NC(=O)c3ccc4c(C5CCCC5)c(-c5ncc(Cl)cn5)n(C)c4c3)CCC2)ccc1/C=C/C(=O)O result_type="concentration at 1 h" endpoint_value=1700
entry_smiles=CCCOc1cc(NC(=O)C2(NC(=O)c3ccc4c(C5CCCC5)c(-c5ccccn5)n(C)c4c3)CCC2)ccc1/C=C/C(=O)O result_type="concentration at 1 h" endpoint_value=400

Attention now turns to another entry.
Req: Record request: concentration at 1 h value, item "COc1cc(NC(=O)C2(NC(=O)c3ccc4c(C5CCCC5)c(-c5ccccn5)n(C)c4c3)CCC2)ccc1/C=C/C(=O)O"
Resp: 1100

###

test: Volume of distribution at steady state in dog at 2 mg/kg, iv; assay type: ADME, organism-based, Canis lupus familiaris; parameters: dose 2 mg/kg, route intravenous; details: in vivo, read-out: Vdss
result.type: Vd (L/kg)
Give bare numbers, in L/kg.

Req: Form field: reported Vd of "CCOc1cc(NC(=O)C2(NC(=O)c3ccc4c(C5CCCC5)c(-c5ncc(Cl)cn5)n(C)c4c3)CCC2)ccc1/C=C/C(=O)O"
Resp: 0.38

###

target: Cytochrome P450 3A4 (Homo sapiens, UniProt P08684)
Sequence (P08684 whole entry): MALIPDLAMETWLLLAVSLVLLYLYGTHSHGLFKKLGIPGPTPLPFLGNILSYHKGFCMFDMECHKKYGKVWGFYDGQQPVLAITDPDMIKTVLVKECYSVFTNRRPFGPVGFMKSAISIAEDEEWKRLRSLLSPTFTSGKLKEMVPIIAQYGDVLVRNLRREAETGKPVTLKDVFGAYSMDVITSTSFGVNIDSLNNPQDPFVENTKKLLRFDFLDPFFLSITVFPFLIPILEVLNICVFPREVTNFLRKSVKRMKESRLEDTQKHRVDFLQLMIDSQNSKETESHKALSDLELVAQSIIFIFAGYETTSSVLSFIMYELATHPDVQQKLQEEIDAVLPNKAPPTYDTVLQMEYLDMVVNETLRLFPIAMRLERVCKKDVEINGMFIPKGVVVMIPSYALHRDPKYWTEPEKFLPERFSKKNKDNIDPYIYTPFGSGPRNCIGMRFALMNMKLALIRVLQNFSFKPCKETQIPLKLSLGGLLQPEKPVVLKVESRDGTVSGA
pIC50: −log10 of the molar value.
result.type: pIC50

Req: Using the record for "CCOc1cc(NC(=O)C2(NC(=O)c3ccc4c(C5CCCC5)c(-c5ncc(Cl)cn5)n(C)c4c3)CCC2)ccc1/C=C/C(=O)O" , report its pIC50.
Resp: < 4.52
